Test system: NCI-H322M lung
Experiment: NCI-60 one-dose screen, 48 h (100 = growth as untreated, 0 = no growth, -100 = all killed)
Conditions: 10 µM unless noted
About 83,000 compounds went through this panel and 20% of them were active in at least one assay; those are over-represented in the sample as a whole.
Reported growth by item:

[
  {
    "compound": "CCCCCCCCCCCCCCCCCCOc1ccccc1COP(=O)(O)OOCC[N+](C)(C)C",
    "target": "NCI-H322M lung",
    "growth, %": 87.6
  },
  {
    "compound": "CC12CCC3C(C=CC4=C(N)C(=O)CCC43C)C1CCC2=O (stereo not given)",
    "target": "NCI-H322M lung",
    "growth, %": 88.4
  },
  {
    "compound": "COc1ccc(C2=N[C@@H](Cc3ccccc3)C(=O)Nc3ccsc32)cc1",
    "target": "NCI-H322M lung",
    "growth, %": 89.8
  },
  {
    "compound": "CCCCCCCCC(CO)NCCc1ccccc1 (stereo not given)",
    "target": "NCI-H322M lung",
    "growth, %": 88.8
  },
  {
    "compound": "CC(=O)O[C@@H]1CC[C@]2(C)[C@H]3CC[C@]4(C)C(=O)CC[C@H]4[C@@H]3C[C@@H]3SC(N)=N[C@@]32C1",
    "target": "NCI-H322M lung",
    "growth, %": 89.7
  }
]

* * *

Reported growth by item:
Test system: SN12C renal
Test: NCI-60 one-dose screen, 48 h (100 = growth as untreated, 0 = no growth, -100 = all killed)
Details: 10 µM unless noted
The panel holds about 83,000 compounds, 20% with a hit somewhere; the sample as a whole holds those more often.

[
  {
    "molecule": "O=C(N/N=C\\c1ccc(N(CCCl)CCCl)cc1)c1cccc([N+](=O)[O-])c1",
    "target": "SN12C renal",
    "unit-info": "%",
    "growth": 88.9
  },
  {
    "molecule": "CC(=O)O[C@H]1CC[C@@]2(C)C(=CC[C@H]3[C@@H]4C[C@@H](N5CC5)[C@H](C(C)=O)[C@@]4(C)CC[C@@H]32)C1",
    "target": "SN12C renal",
    "unit-info": "%",
    "growth": 88.9
  },
  {
    "molecule": "Cc1ccccc1NC(=NCCCN1CC1)Nc1ccccc1C",
    "target": "SN12C renal",
    "unit-info": "%",
    "growth": 92.1
  },
  {
    "molecule": "CC1=C2[C@@H](CC1)[C@]1(C)O[C@@](C(C)C)(C[C@H]1O)[C@H]2OC(=O)C1CC1c1ccccc1 (some centres undefined)",
    "target": "SN12C renal",
    "unit-info": "%",
    "growth": 91.7
  }
]

* * *

Tested on: SK-MEL-5 melanoma
Experiment: NCI-60 one-dose screen, 48 h
Details: 10 µM unless noted
The panel holds about 83,000 compounds, 20% with a hit somewhere; the sample as a whole holds those more often. Activity calls are given as the source filed them. The calls were made as follows: active = growth percent below 10; inactive = the rest.
Classes used: active, inactive

[
  {
    "molecule": "O=C(N/N=C\\c1ccc(N(CCCl)CCCl)cc1)c1cccc([N+](=O)[O-])c1",
    "class-label": "inactive"
  },
  {
    "molecule": "CC(C)[C@@H]1NC(=O)[C@]2(C)CSC(=N2)c2csc(n2)CNC(=O)C[C@@H](/C=C/CCS)OC1=O",
    "class-label": "active"
  },
  {
    "molecule": "COC(=O)[C@H](Cc1ccccc1)NC(=O)c1csc([C@@H](C[C@H](C(C)C)N(C)C(=O)[C@@H](NC(=O)[C@H]2CCCCN2C)C2CC2)OC(C)=O)n1",
    "class-label": "active"
  },
  {
    "molecule": "ClC1=C(Cl)C(Cl)(C2(Cl)C(Cl)=C(Cl)C(Cl)=C2Cl)C(Cl)=C1Cl",
    "class-label": "active"
  },
  {
    "molecule": "O=C1C(N2CC2)=C(N2CC2)C(=O)C(N2CC2)=C1N1CC1",
    "class-label": "active"
  },
  {
    "molecule": "COc1ccc2c(c1)c(-c1nc(-c3cn(C)c4ncccc34)cs1)cn2CCCCN1CCCCC1",
    "class-label": "active"
  },
  {
    "molecule": "C/C(=C\\c1ccn(-c2ccc(N)cc2)n1)[C@@H]1C[C@@H]2O[C@]2(C)CCC[C@H](C)[C@H](O)[C@@H](C)C(=O)C(C)(C)[C@@H](O)CC(=O)O1",
    "class-label": "inactive"
  },
  {
    "molecule": "COc1cc([N+](=O)[O-])c2nc(C)ccc2c1[N+](=O)[O-]",
    "class-label": "inactive"
  },
  {
    "molecule": "COc1cccc(C=NC(Cc2cnc[nH]2)C(=O)O)c1O (stereo unspecified)",
    "class-label": "inactive"
  },
  {
    "molecule": "CCCC[C@H](NC(=O)[C@H]1CCCN1C)C(=O)N(C)[C@H](C[C@@H](OC(C)=O)c1nc(C(=O)N[C@@H](Cc2ccccc2)C[C@H](C)C(=O)OCC)cs1)C(C)C",
    "class-label": "active"
  },
  {
    "molecule": "O=C(c1ccccc1O)c1[nH]c(Cl)c(Cl)c1-n1c(C(=O)c2ccccc2O)cc(Cl)c1Cl",
    "class-label": "active"
  },
  {
    "molecule": "Clc1ccc(COC(Cn2ccnc2)c2ccc(Cl)cc2Cl)cc1 (stereo unspecified)",
    "class-label": "inactive"
  },
  {
    "molecule": "CCOC(=O)N1CC1",
    "class-label": "inactive"
  },
  {
    "molecule": "COc1cc(/C=N/C2=C(C#N)C(c3ccco3)c3c(c4cc(C)ccc4oc3=O)O2)cc(OC)c1OC (stereo unspecified)",
    "class-label": "inactive"
  },
  {
    "molecule": "CC(=O)O[C@H]1C(=O)[C@@]2(C)[C@H]([C@H](OC(=O)c3ccccc3)[C@]3(O)C[C@H](OC(=O)[C@H](OC(=O)OC[C@@H]4COC(C)(C)O4)[C@@H](NC(=O)c4ccccc4)c4ccccc4)C(C)=C1C3(C)C)[C@]1(OC(C)=O)CO[C@@H]1C[C@@H]2O",
    "class-label": "inactive"
  },
  {
    "molecule": "COC1CC2c3ccccc3C1C(C)=[N+]2C (stereo unspecified)",
    "class-label": "inactive"
  },
  {
    "molecule": "CC(C)COC(C[N+](=O)[O-])C(Cl)(Cl)Cl (stereo unspecified)",
    "class-label": "inactive"
  },
  {
    "molecule": "CCCC(=O)O[C@@H]1C[C@H]2C[C@@H](O[C@@H]3O[C@@H](C)[C@@H](O)[C@@H](O)[C@H]3OC)C[C@@H](C[C@@H](C)/C=C/C=C\\C[C@@H]3O[C@@H](C[C@@H]3C)[C@@H](O)C[C@H]3C[C@@]1(O)C(=O)O3)O2",
    "class-label": "inactive"
  },
  {
    "molecule": "Cc1ccc2c(C(C[N+](=O)[O-])c3cccs3)c(-c3ccccc3)[nH]c2c1 (stereo unspecified)",
    "class-label": "inactive"
  },
  {
    "molecule": "[Cl][Hg][n]1c(-c2ccco2)nc2ccccc21",
    "class-label": "inactive"
  },
  {
    "molecule": "O=C(O)CNC(=O)C(Cl)(Cl)Cl",
    "class-label": "inactive"
  },
  {
    "molecule": "Fc1ccc2c(c1)c(-c1nc(-c3c[nH]c4ncccc34)cs1)cn2CCCCN1CCCCC1",
    "class-label": "active"
  },
  {
    "molecule": "C#Cc1ccc2c(c1)C(c1ccccc1F)=NCC(=O)N2C",
    "class-label": "inactive"
  },
  {
    "molecule": "CC(=O)O[C@H]1CC[C@]2(C)[C@H]3CC[C@]4(C)[C@@H](OC(C)=O)CC[C@H]4[C@@H]3[C@@H](C)[C@]2(O)C1",
    "class-label": "inactive"
  },
  {
    "molecule": "COC(=O)[C@H](C[C@H](Cc1ccccc1)NC(=O)c1csc([C@@H](C[C@H](C(C)C)N(C)C(=O)[C@@H](NC(=O)[C@H]2CCCCN2C)C(C)C)OC(C)=O)n1)NC(=O)OCc1ccccc1",
    "class-label": "active"
  },
  {
    "molecule": "C[C@]12CCc3sc(-c4ccccc4O)nc3C1=CC[C@@H]1[C@@H]2CC[C@]2(C)C(=O)CC[C@@H]12",
    "class-label": "inactive"
  }
]
